# Measured Target: 5-lipoxygenase (Homo sapiens, UniProt P09917)
# Construct: The resultant supernatant containing the cytosolic 5-lipoxygenase activity is stored frozen
# Sequence (P09917 whole entry): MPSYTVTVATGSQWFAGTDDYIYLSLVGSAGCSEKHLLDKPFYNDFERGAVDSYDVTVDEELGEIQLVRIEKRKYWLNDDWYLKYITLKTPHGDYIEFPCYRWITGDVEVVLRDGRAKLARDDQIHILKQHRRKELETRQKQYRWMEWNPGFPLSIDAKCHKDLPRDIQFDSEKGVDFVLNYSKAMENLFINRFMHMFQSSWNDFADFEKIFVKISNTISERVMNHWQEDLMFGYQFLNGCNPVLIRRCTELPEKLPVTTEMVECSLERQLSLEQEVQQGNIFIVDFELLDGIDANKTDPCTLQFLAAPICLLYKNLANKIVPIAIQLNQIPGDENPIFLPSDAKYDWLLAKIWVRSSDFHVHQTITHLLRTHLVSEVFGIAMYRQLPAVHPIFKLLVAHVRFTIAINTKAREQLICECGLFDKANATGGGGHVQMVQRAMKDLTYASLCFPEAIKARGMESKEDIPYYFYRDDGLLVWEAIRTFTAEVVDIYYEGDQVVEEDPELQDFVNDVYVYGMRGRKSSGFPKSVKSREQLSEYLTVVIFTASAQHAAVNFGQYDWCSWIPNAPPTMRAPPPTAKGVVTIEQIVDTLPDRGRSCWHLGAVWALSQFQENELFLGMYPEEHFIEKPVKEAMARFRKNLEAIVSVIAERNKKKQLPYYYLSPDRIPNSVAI
# Assay Notes: 5-Lipoxygenase (5-LPO) Assay: inhibition of leukotriene B4 formation by human neutrophil 20,000×g supernatant
pIC50: −log10 of the molar value.
Listing of recorded pIC50 by entry.

{"Test Smiles": "O=C(c1ccc2ccccc2c1)c1c(-c2ccc(O)cc2)sc2cc(O)ccc12", "Measured Target": "5-lipoxygenase (Homo sapiens, UniProt P09917)", "pIC50": 6.00}
{"Test Smiles": "Oc1ccc(-c2cc3ccc(O)cc3s2)cc1", "Measured Target": "5-lipoxygenase (Homo sapiens, UniProt P09917)", "pIC50": 6.70}
{"Test Smiles": "O=C(c1cccc2ccccc12)c1c(-c2ccc(O)cc2)sc2cc(O)ccc12", "Measured Target": "5-lipoxygenase (Homo sapiens, UniProt P09917)", "pIC50": 5.77}
